The origin of these recorded values is patent US20100222396A1.

Would you mind telling me the reported pKd of each entry?
System: human orexin 1 receptor (hOx1R) (Homo sapiens, UniProt O43613)
Construct: expressed in transfected cells
Sequence (O43613 whole entry): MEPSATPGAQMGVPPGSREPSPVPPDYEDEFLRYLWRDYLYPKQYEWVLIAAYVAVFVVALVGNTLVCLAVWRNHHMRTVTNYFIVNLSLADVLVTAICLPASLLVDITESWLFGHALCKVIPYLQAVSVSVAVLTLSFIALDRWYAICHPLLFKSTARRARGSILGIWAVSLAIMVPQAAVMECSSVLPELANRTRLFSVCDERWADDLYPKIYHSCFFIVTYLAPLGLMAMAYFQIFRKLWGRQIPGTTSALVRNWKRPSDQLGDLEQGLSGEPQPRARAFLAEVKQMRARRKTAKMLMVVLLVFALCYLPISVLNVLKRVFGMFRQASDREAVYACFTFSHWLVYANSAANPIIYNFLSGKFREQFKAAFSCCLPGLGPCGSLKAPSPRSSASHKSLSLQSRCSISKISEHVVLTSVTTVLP
Assay Remarks: Radioligand binding assay ([125I]orexin A competition), hOx1R
Experimental Conditions: CHO or HEK cell membranes, 1 h room temperature
Lab note — pKd values are minus log10 of concentrations in M.

Fill in: pKd of CN(C(=O)c1ccc2c(c1)OCO2)[C@H](CCNC(=O)c1cc2ccccc2n1C)Cc1ccccc1 [Example 75] is ___ 6.15

Record: CN(C(=O)c1ccccc1)[C@H](CCNC(=O)c1nc2ccccc2n1C)Cc1ccccc1 [Example 48] 5.55

Now this one: CN(C(=O)c1cccc(C(F)(F)F)c1)[C@H](CCNC(=O)c1ccccn1)Cc1ccccc1 [Example 4] 6.95

Then CN(C(=O)c1ccc2cc[nH]c2c1)[C@H](CCNC(=O)c1ccccn1)Cc1ccccc1 [Example 64] ? 6.27

Would you kindly repeat that for CN(C(=O)c1ccc2c(c1)OCO2)[C@H](CCNC(=O)c1nccn1C)Cc1ccccc1 [Example 78] ? 6.18

How about this molecule: CN(C(=O)c1cccc(Br)c1)[C@H](CCNC(=O)c1nc2ccccc2n1C)Cc1ccccc1 [Example 102] 7.55

Query CN(C(=O)c1cccc2c1OCC2)[C@H](CCNC(=O)c1ccccn1)Cc1ccccc1 [Example 46] next 6.40

* * *

System: human orexin 2 receptor (hOx2R) (Homo sapiens)
Construct: expressed in transfected cells
Assay Remarks: Calcium accumulation in cells (FLIPR), antagonism of orexin A, hOx2R
Type: cell-based
Experimental Conditions: cells expressing human orexin 2 receptor; IC50 vs orexin A converted by Cheng and Prusoff correction
Hi there, I'd appreciate the recorded Kd for every entry that follows.
All answers are understood in nM, so give the number only.

Give Kd (human orexin 2 receptor (hOx2R) (Homo sapiens)) of the following compound: "CN(C(=O)c1ccc2c(c1)OCO2)[C@H](CCNC(=O)c1cc2ccccc2[nH]1)Cc1ccccc1" 106

Again, but for "CN(C(=O)c1ccc(C(F)(F)F)c(C(F)(F)F)c1)[C@H](CCNC(=O)c1ccccn1)Cc1ccccc1" 581

Quick one: "Cc1nc2sccn2c1C(=O)NCC[C@H](Cc1ccccc1)N(C)C(=O)c1ccccc1" 76

What about "CN(C(=O)c1ccc2occc2c1)[C@H](CCNC(=O)c1ccccn1)Cc1ccccc1" ? 123

* * *

System: human orexin 2 receptor (hOx2R) (Homo sapiens, UniProt O43614)
Construct: expressed in transfected cells
Sequence (O43614 whole entry): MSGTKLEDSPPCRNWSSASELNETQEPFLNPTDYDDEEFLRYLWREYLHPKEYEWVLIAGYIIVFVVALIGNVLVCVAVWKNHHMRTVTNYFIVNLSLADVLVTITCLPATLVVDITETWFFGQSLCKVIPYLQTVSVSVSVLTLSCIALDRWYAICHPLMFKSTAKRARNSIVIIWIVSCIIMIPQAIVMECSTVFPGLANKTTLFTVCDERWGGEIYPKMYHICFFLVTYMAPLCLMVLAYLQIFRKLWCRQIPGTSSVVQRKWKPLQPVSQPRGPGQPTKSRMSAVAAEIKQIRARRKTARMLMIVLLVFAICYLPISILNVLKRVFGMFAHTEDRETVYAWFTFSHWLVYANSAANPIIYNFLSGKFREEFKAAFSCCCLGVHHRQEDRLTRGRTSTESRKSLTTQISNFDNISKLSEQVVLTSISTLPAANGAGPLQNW
Assay Remarks: Calcium accumulation in cells (FLIPR), antagonism of orexin A, hOx2R
Type: cell-based
Experimental Conditions: measured at a concentration of 10 μM of compound (cells marked ^a)
Threshold check on inhibition at 10 µM: at or above 30% gives Met, strictly below gives Not met.

Does the compound "CN(C(=O)c1cccc2c1OCO2)[C@H](CCNC(=O)c1nc2ccccc2n1C)Cc1ccc(F)cc1" have recorded inhibition at 10 µM that is 30% or more? Met

Also, "CN(C(=O)c1ccccc1)[C@H](CCNC(=O)c1ccccn1)Cc1ccc(F)cc1" please. Met

Another compound: "CN(C(=O)c1cccc2c1OCO2)[C@H](CCNC(=O)c1ccccn1)Cc1ccc(F)cc1" Not met

Another: "CN(C(=O)c1ccccc1)[C@H](CCNC(=O)c1ccccn1)C(C)(C)c1ccccc1" Not met

Thanks! And "CN(C(=O)c1ccccc1)[C@H](CCNC(=O)c1ccccn1)Cc1ccc(Cl)cc1" ? Not met

# iterate: "CN(C(=O)c1ccccc1)[C@H](CCNC(=O)c1ccnc2ccccc12)Cc1ccccc1" Not met

Do the same for "CN(C(=O)c1cccc2c1OCO2)[C@H](CCNC(=O)c1ccccn1)Cc1ccc(Cl)cc1" please Met

Here is the next compound: "Cc1cccc(C)c1C(=O)N(C)[C@H](CCNC(=O)c1ccccn1)Cc1ccccc1" Not met

And "CN(C(=O)c1ccc2c(c1)OCCO2)[C@H](CCNC(=O)c1ccccn1)Cc1ccccc1" ? Not met

And what about the compound "CN(C(=O)c1ccccc1)[C@H](CCNC(=O)c1ccccn1)[C@@H](O)c1ccccc1" ? Met

Next compound: "CN(C(=O)c1ccccc1)[C@H](CCNC(=O)c1ccccn1)[C@@H](F)c1ccccc1" Not met
